Tested on: Malme-3M
Test: NCI tumour cell line growth inhibition, 48 h
The source made the active and inactive calls. Rule as the data show it: active = GI50 up to about 1.1 µM and inactive = higher.
READOUT: GI50

[[record]]
molecule = "CC(=O)O[C@H]1C[C@H]2[C@@H]([C@H](OC(C)=O)C[C@@H]3CC4(CC[C@@]32C)OOC2(CCCCC2)OO4)[C@@H]2CC[C@H]([C@H](C)CCC(N)=O)[C@@]12C"
readout = "GI50"
recorded_value = "2.76 µM (inactive)"

[[record]]
molecule = "O=C1C(CO)=C[C@@H](O)[C@H]2O[C@@H]12 [EPOXYDON]"
readout = "GI50"
recorded_value = "> 100 µM (inactive)"

[[record]]
molecule = "O=C1OC2C(O)COC2(O)C1(O)C(C[N+](=O)[O-])c1ccc(Cl)cc1 (centres undefined)"
readout = "GI50"
recorded_value = "16.3 µM (inactive)"

[[record]]
molecule = "O=C(NNc1nc(-c2ccccc2)cs1)Nc1ccccc1"
readout = "GI50"
recorded_value = "39.5 µM (inactive)"

